- assay-system: human sphingosine-1-phosphate receptor 1 (S1P1) (Homo sapiens)
- Sequence (P21453 whole entry): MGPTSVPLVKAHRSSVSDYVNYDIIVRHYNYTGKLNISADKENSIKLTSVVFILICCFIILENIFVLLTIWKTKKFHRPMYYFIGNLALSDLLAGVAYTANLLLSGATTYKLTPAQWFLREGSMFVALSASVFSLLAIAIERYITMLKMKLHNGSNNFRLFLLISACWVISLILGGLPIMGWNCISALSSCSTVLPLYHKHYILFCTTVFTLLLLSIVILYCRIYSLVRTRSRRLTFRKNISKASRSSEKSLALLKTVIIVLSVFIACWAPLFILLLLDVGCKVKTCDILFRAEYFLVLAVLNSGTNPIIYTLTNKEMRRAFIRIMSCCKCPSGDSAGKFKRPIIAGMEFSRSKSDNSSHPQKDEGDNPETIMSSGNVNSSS
- Sequence (P32121 whole entry partner): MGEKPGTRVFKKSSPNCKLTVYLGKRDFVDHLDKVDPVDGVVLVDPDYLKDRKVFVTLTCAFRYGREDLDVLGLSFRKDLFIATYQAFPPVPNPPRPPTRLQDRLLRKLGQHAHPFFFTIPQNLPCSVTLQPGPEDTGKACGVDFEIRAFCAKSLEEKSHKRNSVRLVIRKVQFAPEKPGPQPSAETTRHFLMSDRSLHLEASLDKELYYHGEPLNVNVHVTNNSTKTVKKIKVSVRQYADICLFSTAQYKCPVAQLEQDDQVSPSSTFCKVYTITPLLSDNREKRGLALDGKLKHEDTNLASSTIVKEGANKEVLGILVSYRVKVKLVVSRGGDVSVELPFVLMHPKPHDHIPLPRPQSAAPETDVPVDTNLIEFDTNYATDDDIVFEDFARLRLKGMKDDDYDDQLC
- experiment: β-Arrestin2 recruitment assay (PathHunter), S1P1 CHO-K1 cells
- Assay type: cell-based
- setup-conditions: CHO-K1; efficacy normalized to maximum efficacy of fingolimod; read-out: hS1P1 B-arrestin2 SPAN
metric-name: Emax

compound: CCCCC1CC(=O)c2ccc(-c3nc(-c4cccnc4)no3)cc2O1 (stereo not drawn) [Compound 633]
value-observed: < 75%

compound: CCC1(CC)CC(=O)c2cc(-c3ncc(-c4cccnc4)cn3)ccc2O1 [Compound 509]
value-observed: > 75%

compound: CC1CC(=O)c2ccc(-c3nc(-c4ccncc4)no3)cc2O1 (stereo not drawn) [Compound 536]
value-observed: < 75%

compound: COc1cnccc1-c1nc(-c2ccc3c(ccn3C(C)C)c2)no1 [Compound 391]
value-observed: > 75%

compound: CCC1(CC)CC(=O)c2cc(-c3nc(-c4cncnc4)no3)ccc2O1 [Compound 620]
value-observed: > 75%

compound: N#Cc1cc(-c2nc(-c3ccc4c(c3)NC(=O)CC4)no2)ccc1NCC1CC1 [Compound 471]
value-observed: > 75%

compound: Cc1ccccc1-c1nc(-c2ccc3c(ccn3C(C)C)c2)no1 [Compound 389]
value-observed: > 75%

compound: CC(C)n1ccc2cc(-c3noc(-c4ccccc4Br)n3)ccc21 [Compound 388]
value-observed: > 75%

compound: Cc1ccccc1-c1nc(-c2ccc3c(c2)nnn3C(C)(C)CO)no1 [Compound 609]
value-observed: < 75%

compound: CC(C)Nc1ccc(-c2nnc(-c3ccc4oc(=O)[nH]c4c3)o2)cc1C#N [Compound 637]
value-observed: > 75%

compound: CC(C)Nc1ccc(-c2nc(-c3ccc4c(c3)NC(=O)CC4)no2)cc1C#N [Compound 435]
value-observed: > 75%

compound: Cc1ccccc1-c1nc(-c2ccc3c(c2)nnn3CC(C)(C)CO)no1 [Compound 505]
value-observed: > 75%

These measurements were taken from patent US20230114241A1.
